# Tested on: HL-60(TB) leukemia
# ASSAY_OVERVIEW: NCI tumour cell line growth inhibition, 48 h; in the data active means GI50 below about 0.43 µM; inactive means the rest
Possible outcomes: T = active, F = inactive

MOLECULE	ASSIGNED_CLASS
CCCC(CCC)C(=O)O	F
CCC(=O)OCN1C(=O)C=CC1=O	F
COc1ccc(-c2cc(=O)c3cccnc3[nH]2)cc1	F
CC(CNc1nc(Nc2ccc(Cl)c(Cl)c2)nc(C(Cl)(Cl)Cl)n1)N(C)C (stereo not given)	F
CN1CCN(Cc2ccc(NC(=O)c3[nH]ncc3Nc3cc(OC4CCCC4)ncn3)cc2)CC1	F
NC(=S)N=Nc1c(O)[nH]c2ccccc12	F
Cn1c(=O)c2[nH]cnc2n(C)c1=O.[CH2-]C(Cc1cccc2cc(C(=O)O)c(=O)oc12)OC.[Hg+2].[OH-] (stereo not given)	F
O=C1/C(=C/c2cccc(F)c2)CN(C(=O)C(Cl)Cl)C/C1=C\c1cccc(F)c1	T
CN1CCN(Cc2ccc(NC(=O)c3cncc(C#Cc4ncc5ccccn45)c3)cc2C(F)(F)F)CC1	F
NC(N)=N/N=C/c1ccc(Br)cc1	F
